src = paper PMC7156458

Assign Th-T fluorescence of Aβ42 with compound, mean of three wells (Fig. 7a source data) to each entry below.
# tested_target: UniProtKB P05067
# assay_summary: Th-T (thioflavin-T) assay of Aβ42 aggregation
# Type: biochemical
# applied_conditions: concentration 20, unit not given; time-course reading M138
One number for each entry.

Example entries and their recorded answers appear below.
compound	tested_target	assay_result
C=C1CC[C@@H]2[C@](C)(CC[C@H]3O[C@H](C=C(C)C)C[C@@]23C)[C@@H]1Cc1c(OC)oc(CO)c(C(=O)OC)c1=O [Compound 21]	UniProtKB P05067	0.9539
C=C1CCC2C(C)(CCC=C(C)C)C(O)CCC2(C)C1Cc1c(OC)oc(C)c(C(=O)OC)c1=O (centres unmarked) [Compound 14]	UniProtKB P05067	1.586
C=C1CC[C@@H]2[C@](C)(CC[C@H]3O[C@H](C=C(C)C)C[C@@]23C)[C@@H]1Cc1c(OC)oc(CO)c(C)c1=O [Compound 20]	UniProtKB P05067	3.042
C=C1CCC2C(C)(CCC=C(C)C)C(O)CCC2(C)C1Cc1c(OC)oc(CO)c(C(=O)OC)c1=O (centres unmarked) [Compound 13]	UniProtKB P05067	1.029

IN: Fill in Th-T fluorescence of Aβ42 with compound, mean of three wells (Fig. 7a source data) for record C=C1CCC2C(C)(CCC=C(C)C)C(O)CCC2(C)C1Cc1c(OC)oc(CO)c(C)c1=O (centres unmarked) [Compound 12]
OUT: 2.229

* * *

# tested_target: Aβ42 (Homo sapiens, UniProt P05067)
# Sequence (P05067 672-713): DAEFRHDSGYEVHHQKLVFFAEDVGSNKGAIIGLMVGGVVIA
# assay_summary: Th-T (thioflavin-T) assay of Aβ42 aggregation
# Assay type: biochemical
# applied_conditions: head suffix _20 (concentration 20); reading M65
Could you please report measured Th-T fluorescence of Aβ42 (sheet Fig. 7a), mean of three wells for the items listed next?
Numbers only.

molecule	assay_result
C=C1CCC2C(C)(CCC=C(C)C)C(O)CCC2(C)C1Cc1c(OC)oc(CO)c(C(=O)OC)c1=O (centres unmarked)	1.042
C=C1CCC2C(C)(CCC=C(C)C)C(O)CCC2(C)C1Cc1c(OC)oc(C)c(C(=O)OC)c1=O (centres unmarked)	2.056
C=C1CC[C@@H]2[C@](C)(CC[C@H]3O[C@H](C=C(C)C)C[C@@]23C)[C@@H]1Cc1c(OC)oc(CO)c(C(=O)OC)c1=O	0.2511
C=C1CC[C@@H]2[C@](C)(CC[C@H]3O[C@H](C=C(C)C)C[C@@]23C)[C@@H]1Cc1c(OC)oc(CO)c(C)c1=O	3.416

Now, please, on to the next molecule.
IN: Look up and state reported Th-T fluorescence of Aβ42 (sheet Fig. 7a), mean of three wells for C=C1CCC2C(C)(CCC=C(C)C)C(O)CCC2(C)C1Cc1c(OC)oc(CO)c(C)c1=O (centres unmarked)
OUT: 2.121

* * *

# assay_summary: cytotoxicity in Drosophila DL1 cells
# Assay type: cell-based
# applied_conditions: Drosophila, DL1 cells, 0.04 µM, replicate 2, relative to DMSO 1%; read-out: % viability, viability 2
test_readout: viability at 0.04 µM (%)
One number for each entry, in %.

IN: Given the compound C=C1CCC2C(C)(CCC=C(C)C)C(O)CCC2(C)C1Cc1c(OC)oc(C)c(C)c1=O (stereo not shown) , write its reported viability at 0.04 µM.
OUT: 202

* * *

# tested_target: Aβ42 (Homo sapiens)
# assay_summary: Th-T (thioflavin-T) assay of Aβ42 aggregation
# Assay type: biochemical
# applied_conditions: Supplementary Fig. 47 source data; measurement M38 of time course
Can you tell me Th-T fluorescence, mean of three wells for the items I'm about to list?
One number for each entry.

compound	test_readout	assay_result
C=C1CC[C@H]2[C@]3(C)C[C@@H](C=C(C)C)O[C@H]3CC[C@]2(C)[C@@H]1Cc1c(O)c(C)c(C)oc1=O [Compound 5, subglutinol A]	Th-T fluorescence, mean of three wells	2.604
C=C1CC[C@@H]2[C@](C)(CC[C@H]3O[C@H](C=C(C)C)C[C@@]23C)[C@@H]1Cc1c(O)c(C)c(C)oc1=O [Compound 10, higginsianin A]	Th-T fluorescence, mean of three wells	3.058

Attention now turns to another entry.
IN: Indicate its recorded Th-T fluorescence, mean of three wells; the compound in question is C=C1CCC2C3(C)CC(C=C(C)C)OC3CCC2(C)C1Cc1c(OC)oc(C)c(C)c1=O (stereo not drawn) [Compound 23]
OUT: 3.88

* * *

Please provide measured Th-T fluorescence, mean of three wells for the entries that follow.
# tested_target: UniProt P05067
# assay_summary: Th-T (thioflavin-T) assay of Aβ42 aggregation
# Type: biochemical
# applied_conditions: time-course reading M103; Supplementary Fig. 47 source data
Answers are plain numbers.

Some molecules with recorded Th-T fluorescence, mean of three wells:
molecule	tested_target	Th-T fluorescence, mean of three wells
C=C1CC[C@@H]2[C@](C)(CC[C@H]3O[C@H](C=C(C)C)C[C@@]23C)[C@@H]1Cc1c(O)c(C)c(C)oc1=O [Compound 10, higginsianin A]	UniProt P05067	3.034
C=C1CCC2C(C)(CCC=C(C)C)C(O)CCC2(C)C1Cc1c(OC)oc(C)c(C)c1=O (stereo not shown) [Compound 11]	UniProt P05067	3.477
C=C1CCC2C(C)(CCC=C(C)C)C(O)CCC2(C)C1Cc1c(O)c(C)c(C)oc1=O (stereo not shown) [Compound 9, higginsianin B]	UniProt P05067	2.816
C=C1CC[C@@H]2[C@](C)(CC[C@H]3O[C@H](C=C(C)C)C[C@@]23C)[C@@H]1Cc1c(OC)oc(CO)c(C)c1=O [Compound 20]	UniProt P05067	4.222
CC(C)=CCC/C(C)=C/CC/C(C)=C/CC/C(C)=C/Cc1c(O)c(C)c(C)oc1=O [Compound 2]	UniProt P05067	2.949
C=C1CC[C@H]2[C@]3(C)C[C@H](C=C(C)C)O[C@H]3CC[C@]2(C)[C@@H]1Cc1c(OC)oc(C)c(C)c1=O [Compound 24]	UniProt P05067	3.988

Shifting focus to the molecule that follows.
IN: Identify measured Th-T fluorescence, mean of three wells corresponding to C=C1CCC2C(C)(CCC=C(C)C)C(=O)CCC2(C)C1Cc1c(O)c(C)c(C)oc1=O (stereo not shown) [Compound 8]
OUT: 2.209

* * *

Please provide measured Th-T fluorescence, mean of three wells for the entries that follow.
# tested_target: Aβ42 (Homo sapiens, UniProt P05067)
# assay_summary: Th-T (thioflavin-T) assay of Aβ42 aggregation
# Type: biochemical
# applied_conditions: compound at 20; reading M43 of time course
Give bare numbers.

compound	assay_result
C=C1CCC2C(C)(CCC=C(C)C)C(O)CCC2(C)C1Cc1c(OC)oc(CO)c(C)c1=O (centres unmarked)	2.22

Look at each compound and report its Th-T fluorescence, mean of three wells.
1. C=C1CC[C@@H]2[C@](C)(CC[C@H]3O[C@H](C=C(C)C)C[C@@]23C)[C@@H]1Cc1c(OC)oc(CO)c(C)c1=O
2. C=C1CCC2C(C)(CCC=C(C)C)C(O)CCC2(C)C1Cc1c(OC)oc(C)c(C(=O)OC)c1=O (centres unmarked)
3. C=C1CC[C@@H]2[C@](C)(CC[C@H]3O[C@H](C=C(C)C)C[C@@]23C)[C@@H]1Cc1c(OC)oc(CO)c(C(=O)OC)c1=O
4. C=C1CCC2C(C)(CCC=C(C)C)C(O)CCC2(C)C1Cc1c(OC)oc(CO)c(C(=O)OC)c1=O (centres unmarked)

OUT:
1. 3.4108
2. 2.068
3. 0.2115
4. 0.4511

* * *

Task for the reader: assign each of the following compounds its reported Th-T fluorescence, mean of three wells.
# tested_target: Aβ42 (Homo sapiens, UniProt P05067)
# assay_summary: Th-T (thioflavin-T) assay of Aβ42 aggregation
# Format: biochemical
# applied_conditions: Aβ42 aggregation time course, reading M130
Give bare numbers.

Below are some compounds; for each one, tell me its Th-T fluorescence, mean of three wells.
1. C=C1CCC2C(C)(CCC=C(C)C)C(O)CCC2(C)C1Cc1c(OC)oc(CO)c(C)c1=O (stereo not shown)
2. C=C1CCC2C(C)(CCC=C(C)C)C(O)CCC2(C)C1Cc1c(OC)oc(CO)c(C(=O)OC)c1=O (stereo not shown)
3. C=C1CC[C@@H]2[C@](C)(CC[C@H]3O[C@H](C=C(C)C)C[C@@]23C)[C@@H]1Cc1c(OC)oc(CO)c(C)c1=O
4. C=C1CCC2C(C)(CCC=C(C)C)C(O)CCC2(C)C1Cc1c(OC)oc(C)c(C)c1=O (stereo not shown) [Compound 11]
5. C=C1CC[C@H]2[C@]3(C)C[C@H](C=C(C)C)O[C@H]3CC[C@]2(C)[C@@H]1Cc1c(OC)oc(C)c(C)c1=O

OUT:
1. 2.033
2. 1.033
3. 4.128
4. 3.361
5. 3.844

For each entry beneath this line, provide reported Th-T fluorescence, mean of three wells.
1. C=C1CCC2C3(C)CC(C=C(C)C)OC3CCC2(C)C1Cc1c(OC)oc(C)c(C)c1=O (stereo not shown)
2. C=C1CCC2C(C)(CC(=O)C=C(C)C)C(O)CCC2(C)C1Cc1c(OC)oc(CO)c(C)c1=O (stereo not shown)

OUT:
1: 3.7777; 2: 3.59
